System: LXRa homodimer (NR concentration 270 nM)
protocol: PBM binding z-score (relative to random genomic background probes); higher = stronger binding; sequences stand for … in GC…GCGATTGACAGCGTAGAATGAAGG
Reported PBM binding z-score values are given for each entry in this list.
// print number alone

Some solved entries appear below for comparison.
sequence_content=GCTGCTAGGTCAACTGAAGGTCAGCTAAAGCTCG experimental_target="LXRa homodimer (NR concentration 270 nM)" experimental_result=4.01
sequence_content=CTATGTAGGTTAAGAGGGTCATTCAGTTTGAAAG experimental_target="LXRa homodimer (NR concentration 270 nM)" experimental_result=1.07
sequence_content=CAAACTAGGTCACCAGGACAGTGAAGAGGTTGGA experimental_target="LXRa homodimer (NR concentration 270 nM)" experimental_result=0.391
sequence_content=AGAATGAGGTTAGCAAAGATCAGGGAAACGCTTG experimental_target="LXRa homodimer (NR concentration 270 nM)" experimental_result=-0.0125
sequence_content=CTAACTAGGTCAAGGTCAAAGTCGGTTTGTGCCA experimental_target="LXRa homodimer (NR concentration 270 nM)" experimental_result=4.54
sequence_content=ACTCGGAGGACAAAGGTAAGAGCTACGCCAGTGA experimental_target="LXRa homodimer (NR concentration 270 nM)" experimental_result=-0.383

Prompt: Param item = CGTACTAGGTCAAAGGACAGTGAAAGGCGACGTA ; retrieve measured PBM binding z-score.
Response: 0.17

Prompt: Param item = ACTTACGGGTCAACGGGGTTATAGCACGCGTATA ; retrieve measured PBM binding z-score.
Response: 0.682

Prompt: Param item = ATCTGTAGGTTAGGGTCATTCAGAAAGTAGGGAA ; retrieve measured PBM binding z-score.
Response: 1.54

Prompt: Param item = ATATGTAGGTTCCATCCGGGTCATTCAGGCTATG ; retrieve measured PBM binding z-score.
Response: 0.192

Prompt: Param item = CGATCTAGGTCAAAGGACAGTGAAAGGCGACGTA ; retrieve measured PBM binding z-score.
Response: -0.0244

Prompt: Param item = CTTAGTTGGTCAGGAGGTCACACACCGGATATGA ; retrieve measured PBM binding z-score.
Response: 2.38

Prompt: Param item = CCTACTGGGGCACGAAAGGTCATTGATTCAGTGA ; retrieve measured PBM binding z-score.
Response: 4.81

Prompt: Param item = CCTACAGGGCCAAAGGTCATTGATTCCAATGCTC ; retrieve measured PBM binding z-score.
Response: 4.04

Prompt: Param item = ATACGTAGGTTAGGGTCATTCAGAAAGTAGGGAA ; retrieve measured PBM binding z-score.
Response: 1.16

Prompt: Param item = ACTCGGAGGACAAAGGTCAGAACTACGCCAGTGA ; retrieve measured PBM binding z-score.
Response: 1.47

Prompt: Param item = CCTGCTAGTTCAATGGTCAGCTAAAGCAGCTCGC ; retrieve measured PBM binding z-score.
Response: -0.297

Prompt: Param item = CAAACTAGGTCACGAAAGGTCAAAGTGGAATGAC ; retrieve measured PBM binding z-score.
Response: 7.92

Prompt: Param item = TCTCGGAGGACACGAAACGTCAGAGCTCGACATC ; retrieve measured PBM binding z-score.
Response: -0.617

Prompt: Param item = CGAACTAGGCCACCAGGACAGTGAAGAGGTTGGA ; retrieve measured PBM binding z-score.
Response: -0.662
